target: human CD33 P46D (human, UniProt P20138 18-364); assay: flow cytometry, mutant on cells, IgG
Sequence (P20138 18-364 P46D limits assumed): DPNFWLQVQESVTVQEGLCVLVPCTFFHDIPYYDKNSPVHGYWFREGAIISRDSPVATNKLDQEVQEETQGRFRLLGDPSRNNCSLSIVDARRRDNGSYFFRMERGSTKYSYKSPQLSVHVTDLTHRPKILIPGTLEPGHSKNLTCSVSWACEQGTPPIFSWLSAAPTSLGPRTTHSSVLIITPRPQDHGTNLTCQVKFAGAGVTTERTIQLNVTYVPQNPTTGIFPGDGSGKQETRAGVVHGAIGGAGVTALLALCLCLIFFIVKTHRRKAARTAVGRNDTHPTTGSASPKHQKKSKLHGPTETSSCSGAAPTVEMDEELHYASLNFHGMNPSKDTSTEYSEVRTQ
Readout: Mean % WT Binding (% WT binding)
Field: numeric (% WT binding). Do not append units.

Give the reported Mean % WT Binding for this binder. Refmab #2 (antibody, human IgG1, V domains shown, Tested in IgG format; human IgG1 Fc silent (PG-LALA)) VH: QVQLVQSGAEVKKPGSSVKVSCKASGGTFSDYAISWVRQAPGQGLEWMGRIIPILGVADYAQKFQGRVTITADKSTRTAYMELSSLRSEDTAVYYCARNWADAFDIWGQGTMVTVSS VL: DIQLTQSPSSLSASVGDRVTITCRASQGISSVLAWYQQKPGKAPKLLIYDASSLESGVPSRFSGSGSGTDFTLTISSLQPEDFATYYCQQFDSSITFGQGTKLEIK
100

Reference source: patent US20260242735A1
